Tested on: PPARg DBDmut:RXRa IVT, anti-PPARg (DBD mutation: PPARg1 K132A/R137A, NR concentration 270 nM, RXRa partner concentration 90 nM)
PROCEDURE_SUMMARY: PBM binding z-score (relative to random genomic background probes); higher = stronger binding; sequences stand for … in GC…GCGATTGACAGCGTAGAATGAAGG
RECORDED_METRIC: PBM binding z-score
Form field (numeric): enter value without unit.

# input Quick one: give measured PBM binding z-score for "TCATATGGGTAAAAGGTGAAAGTCGGTGTGGTAA"
# output 0.558

# input Read off the recorded PBM binding z-score for "CGTCCACGGTCAGCAGGTCAGTGAAAGCGACGTG"
# output -0.923

# input Supply recorded PBM binding z-score for "TCTAGTTGGTCACGGAAGTCACACACGACGGGTA" here.
# output 1.45

# input Answer with the recorded PBM binding z-score for the sequence listed here: "CCTCGGAGGACATAAGGTCAGAGCTGTCCGCTTT"
# output -1

# input Assign PBM binding z-score to the following record: "CCTACTGGGCCATTCAGAGGTAATTGATCATATG"
# output -0.325

# input Name the recorded PBM binding z-score of the sequence listed here: "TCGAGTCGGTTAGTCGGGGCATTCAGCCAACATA"
# output -0.814

# input Give the measured PBM binding z-score for "GCTTGTAGATCAAGGATAAGAAAGACTAAGCTAA"
# output -0.469

# input Dear colleague, please send me the reported PBM binding z-score for "ATCTCTACGTAAAAGTTCAGTGAATCCCGAGGAT" when you can.
# output 1.69

# input Read off the recorded PBM binding z-score for "CCTACTGGGCCACCAAAGGTCATTGATTCAGTGA"
# output 1.31

# input Name the recorded PBM binding z-score of the sequence listed here: "AGAACGAGGGCACGCTGAGTTGATAGCCGAGTAG"
# output 0.489

# input Provide only the value of recorded PBM binding z-score for "TTACCAAGGTGAGCTGAGTTCGTTGATCCAACTC"
# output -0.265

# input Identify PBM binding z-score associated with the sequence "CCTACTGGGCCGCGAAAGGTCATTGATTCAGTGA"
# output -1.14

# input Give me measured PBM binding z-score, please, for this sequence: "ATCGAAAGGTTGTGAGGTGAGTATACAGAAAGGC"
# output 0.845

# input Note PBM binding z-score for the sequence shown: "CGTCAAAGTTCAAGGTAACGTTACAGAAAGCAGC"
# output 0.621

# input Annotate the sequence "GGAACGAGAGCAAAGTTGATAGCATCTGTCGACG" with its measured PBM binding z-score.
# output -1.31

# input Fill in PBM binding z-score for record "CGAACGACGGCATGAGTTGATAGCAAATGCCGAT"
# output -1.17

# input Dear colleague, please send me the reported PBM binding z-score for "CTCGAAAGGTCGGTTGGGGTGAGTATACGGATAA" when you can.
# output 0.0444

# input Please indicate PBM binding z-score recorded for "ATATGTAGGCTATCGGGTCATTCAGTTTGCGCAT"
# output 1.43

# input Answer with reported PBM binding z-score of "CGTCCAAGGACAGCAGGTCAGTGAAAGCGACGTG"
# output -1.43

# input For the sequence "TGAATGAGGTTAAAGCTCAGGGAACGTGGCGTCG" , report PBM binding z-score.
# output -0.0715

# input Write down PBM binding z-score measured for item "CCTAATGGGCCATTCAGAGGTCATTGATCATATG"
# output 0.168

# input Complete the entry with PBM binding z-score for "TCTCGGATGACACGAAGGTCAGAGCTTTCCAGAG"
# output -0.684

# input Tell me PBM binding z-score reported for "ACTAGTTGGTCATCTGAGGTCACACACAATTCGG"
# output 1.2

# input // Input: "CCTACGGGGCCAAAAAGGTCATTGATGCCGATAA" . Output its PBM binding z-score only.
# output -1.13

# input For the sequence "CCTTACGGGTCGCTCCAGGTTATAGCATCGGAGT" , give its measured PBM binding z-score value.
# output -1.18

# input Report measured PBM binding z-score; entry is "TCTCGGAGGACACGAACGTCAGAGCTTTCCAGAG"
# output -0.617
